Experiment: Solubility of compound (B) in water at 20°C (10.0 g sample in 100 mL ion-exchange water, undissolved or recrystallized sample weighed)
Assay type: physicochemical
Details: stirred at 80°C for one hour, cooled to 20°C, more than 10.0 g/100 mL if completely dissolved
readoutLabel: Solubility in water at 20°C (g/100 mL)

Consider the worked cases shown below.
- compound: "NC(=O)c1cc(C(N)=O)cc(C(N)=O)c1 [Trimesamide, trimesamide]"
  Solubility in water at 20°C, g/100 mL: 0.2
- compound: "O=C(O)c1cc(O)c(O)c(O)c1"
  Solubility in water at 20°C, g/100 mL: 1.0
- compound: "NC(=O)/C=C/C(N)=O [Fumaramide, fumaramide]"
  Solubility in water at 20°C, g/100 mL: 0.2
- compound: "O=C(O)c1cc(C(=O)O)cc(C(=O)O)c1"
  Solubility in water at 20°C, g/100 mL: 0.5
- compound: "O=C(O)c1ccc(C(=O)O)c(C(=O)O)c1"
  Solubility in water at 20°C, g/100 mL: 2.0

a = O=C(O)c1cccc(C(=O)O)c1C(=O)O
b = O=C(O)/C=C/C(=O)O
Exercise: Record comparison, field Solubility in water at 20°C: mark the lower of a and b . Your answer should be the label of the entry you select.
Solution: b
(b: 0.5 g/100 mL, a: 2.0 g/100 mL)

###

Test: Solubility of compound (B) in water at 20°C (10.0 g sample in 100 mL ion-exchange water, undissolved or recrystallized sample weighed)
Type: physicochemical
Settings: stirred at 80°C for one hour, cooled to 20°C, more than 10.0 g/100 mL if completely dissolved
Experimental: The method for measuring this solubility is as follows. First, 10.0 g of a sample to be measured is added to 100 mL of ion-exchange water, and the resulting mixture is stirred at 80°C for one hour to dissolve the sample. Next, the resulting solution in which the sample is dissolved is cooled to 20°C. The sample that remains without being dissolved or is recrystallized is collected, and the weight thereof is determined. […] Crosslinking Agent
Solubility in water at 20°C: recorded values

Worked examples, 2 molecules total:
- molecule: "CC(=O)[O-].CC(=O)[O-].[O-2].[Zr+4] [ZrO(C2H3O2)2, reference compound]"
  readoutLabel: "Solubility in water at 20°C"
  resultValue: ">10 g/100 mL"
- molecule: "[Cl-].[Cl-].[O]=[Zr+2] [ZrOCl2, reference compound]"
  readoutLabel: "Solubility in water at 20°C"
  resultValue: ">10 g/100 mL"

Exercise: Param item = O=C(O)/C=C\C(=O)O [Maleic acid, maleic acid, reference compound] ; retrieve measured Solubility in water at 20°C.
Solution: >10.0 g/100 mL

Values compiled from patent EP3578378B1.
